src = the supplement of paper PMC12042874

Assay: amyloid nucleation score (Sup35N fusion, yeast selection) (log enrichment); library NNK2; higher = more nucleation; inactive = no reads after selection;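 further: zero at mode of non-aggregating sequences after 7 days selection at 30°C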

seq: YAGFVFFRTL
amyloid nucleation score: inactive

seq: MYLCTGFASSFIKSHHITWR
amyloid nucleation score: -0.098

seq: LYCIVQGKSSGIHQRATFCF
amyloid nucleation score: inactive

seq: QYVLLTLCVRIIHGSND
amyloid nucleation score: inactive

* * *

Assay: amyloid nucleation score (Sup35N fusion, yeast selection) (log enrichment); library NNK2; higher = more nucleation; inactive = no reads after selection
parameter: amyloid nucleation score

seq: RFFFYGLGMFYIETFYLLWF
result: inactive
//
seq: FFRVQINEGDQGYQSQYF
result: inactive
//
seq: DACWFMIGHIGFC
result: inactive

* * *

Assay: amyloid nucleation score (Sup35N fusion, yeast selection) (log enrichment); library NNK3; higher = more nucleation; inactive = no reads after selection
parameter: amyloid nucleation score

Consider the following illustrative entries.
substance: RAYTDV
result: inactive
//
substance: DSYCGLRDEWITRWLGCRWM
result: inactive
//
substance: GDYGCFSLMQTHTEEEILMR
result: inactive
//
substance: FYGLYFYHSVH
result: inactive
//
substance: TFRLKGALRKVVW
result: inactive
//
substance: YFISWSFHGFVTSPGFWSGC
result: 1.41
//
substance: MWMLLFGCSSCWWSCNRLSP
result: -0.239
//
substance: DPTSLGRQRLTRDKIPQNWS
result: inactive
//
substance: YVCSDSMLEARVREGTEYRS
result: -0.259
//
substance: EYLLSSMRLSVILSAWYARC
result: inactive

Hello, I would appreciate it if you could give amyloid nucleation score for each entry below.
1. FIIISIYGCIIVRWTKRAWG
2. WFSNWYYVARDDYLISGREE
3. TGFLSIHLSWTYTCYMIVER
4. RSNTQGLPQYKC

**Result**
["inactive", "inactive", "inactive", "inactive"]

* * *

Experiment: amyloid nucleation score (Sup35N fusion, yeast selection) (log enrichment); library NNK2; higher = more nucleation; inactive = no reads after selection
Label scheme for amyloid nucleation score: lower than 0.4 is not satisfied, 0.4 and above is satisfied.

Example results:
seq: PVRCMIAHNCLIFWLVWTVV
classLabel: not satisfied
//
seq: LNVMFCNVVNGFYYMDSFVC
classLabel: satisfied
//
seq: GFWKTYNTFVLSWSRTNCLQ
classLabel: satisfied

**Query** Textbook exercise: given the entry KESLAFTSVGVPYVWGLYGE , state whether its amyloid nucleation score is greater than or equal to 0.4.
**Result** not satisfied

**Query** hey, is amyloid nucleation score for this one >= 0.4? VHRTEVRLLSQGTRYVSCNS
**Result** satisfied

**Query** API: above_or_equal(metric=amyloid nucleation score, cutoff=0.4) for item FVLFENSGLFMGLDICMLCQ
**Result** satisfied

**Query** Is amyloid nucleation score at least 0.4? Consider MIEKVQFQCLVIICRNGVV
**Result** satisfied

**Query** Given IDCFIVISSMMSRVLYCGER , state whether its amyloid nucleation score is at least 0.4.
**Result** not satisfied

**Query** # check: amyloid nucleation score of WRYRHELEACWRHHSNSWYG is greater than or equal to 0.4
**Result** satisfied

* * *

Test: amyloid nucleation score (Sup35N fusion, yeast selection) (log enrichment); library NNK2; higher = more nucleation; inactive = no reads after selection

seq: LFLRLVNQMVLLIKEWNVWG
amyloid nucleation score: 0.196
--
seq: MWLLWAKI
amyloid nucleation score: inactive
--
seq: YISFSDEVFV
amyloid nucleation score: inactive

* * *

Assay: amyloid nucleation score (Sup35N fusion, yeast selection) (log enrichment); library NNK2; higher = more nucleation; inactive = no reads after selection
Think of -0.2 as a floor: if amyloid nucleation score stands on it or above, it is satisfied; beneath it, not satisfied.

seq: QTVTCHNNRYVFRLSTMC
classLabel: satisfied
--
seq: SLDSIFCLTENISYQGIWCR
classLabel: not satisfied

**Query** Can RLSEVTKDYVGTCNLDRLS be said to have amyloid nucleation score at or above -0.2?
**Result** satisfied

**Query** Could you verify whether the entry DLCQSHLPCHMRRTSFRQLP shows amyloid nucleation score of no less than -0.2?
**Result** satisfied

**Query** Textbook exercise: given the entry VLAARVTTYHLCVSEDVVTL , state whether its amyloid nucleation score is greater than or equal to -0.2.
**Result** satisfied

* * *

Experiment: amyloid nucleation score (Sup35N fusion, yeast selection) (log enrichment); library NNK3; higher = more nucleation; inactive = no reads after selection
parameter: amyloid nucleation score

substance: WMLLLTV
amyloid nucleation score: inactive

substance: NISYKW
amyloid nucleation score: 0.377

substance: IGDNCCIWMLDVHSVTLVSE
amyloid nucleation score: 0.329

substance: NMSTAWRRGNPVCTDSKYRV
amyloid nucleation score: inactive

substance: MMVRWEVTV
amyloid nucleation score: -0.172

Give me amyloid nucleation score for each of these substances, listed below.
1. FYRSLGMYRDWTMSIFGKYL
2. IGNLLLGCRPSQNSLRAHTS

**Result**
inactive
inactive

The following substances each have a reported value; give each one's amyloid nucleation score.
1. EGRFLKLFWSGSL
2. MISLMTYSYSRYMYIVSPVP

**Result**
-0.108
inactive

Return reported amyloid nucleation score values for all items listed beneath this line.
1. QFFIFFACLVLVVITLT
2. SWFALSLIIKTRVWT
3. TSTRSEAFRVVVTLPVAVNW
4. CNKYMKVCLGMGKVQTKNGV

**Result**
1: 2.53; 2: inactive; 3: inactive; 4: inactive

* * *

Assay: amyloid nucleation score (Sup35N fusion, yeast selection) (log enrichment); library NNK3; higher = more nucleation; inactive = no reads after selection
parameter: amyloid nucleation score

Previously resolved entries follow.
substance: LNCAILASHSHYTK
parameter: amyloid nucleation score
result: inactive
--
substance: QRMMHFVLCVGFDRGIVPVK
parameter: amyloid nucleation score
result: inactive
--
substance: YSIISSYTFEFSKFAVLALL
parameter: amyloid nucleation score
result: inactive
--
substance: RLLNVLKRYLMVSLQKAGSD
parameter: amyloid nucleation score
result: inactive
--
substance: GDLVSIWAMRFELRKSKEMR
parameter: amyloid nucleation score
result: inactive

Provide amyloid nucleation score for all items below, preserving their order.
1. ASRGRRLCSLYTHEGGSS
2. RYCVFSLT
3. ARYKGWTHNWPINHLIFLNS
4. CKYLPLRNYGSCSPGYGKYV
5. STFMYVCWRPTYGSYYQTVR
6. SGVKFSYNWQR

**Result**
1: inactive; 2: inactive; 3: -0.127; 4: inactive; 5: inactive; 6: inactive

* * *

Assay: amyloid nucleation score (Sup35N fusion, yeast selection) (log enrichment); library NNK3; higher = more nucleation; inactive = no reads after selection
parameter: amyloid nucleation score

substance: TICPWNATLGGKGDRSMK
result: inactive
//
substance: GLAVNNRPDCEVSSLNRLLM
result: inactive
//
substance: FWSGIWSNTFRFYGAVIWPG
result: inactive
//
substance: CRCMTR
result: inactive

List reported amyloid nucleation score for each of these substances:
1. SRIGFPICLRRGYVNQDCNG
2. LLKRKLIVAFKKSMLFDFMV
3. VKSRNENIDPGCWRLELAPF
4. DFTLTPMWRHFEGFNKVAWG
5. VTCSYQMVLWAAFVVKCPAL
6. YSCVWNGKWCYYSTANDLS
7. SWYVAFFNNSGFSCMGVFVG

**Result**
["inactive", "inactive", "inactive", "inactive", 0.817, "inactive", "inactive"]

I have 2 substances here; please give me amyloid nucleation score for each one.
1. ILINSRFMRFVFRAGHRV
2. VLIRWRYEAYLSHCGSPCAS

**Result**
1: inactive; 2: inactive

Would you mind giving amyloid nucleation score for every substance in the list below?
1. RSYVTILDAFSWIM
2. YCYLGG
3. ISMSNHWLLLVICNDEWDLP
4. DLSMGNCEVVGLESSTTICK
5. TYRVLE

**Result**
1. -0.239
2. -0.36
3. -0.06
4. inactive
5. inactive

Batch lookup, amyloid nucleation score per entry.
1. GLCRLIDLKM
2. TVGSRGSTPHCTLLLVSWSL

**Result**
inactive
inactive

* * *

Assay: amyloid nucleation score (Sup35N fusion, yeast selection) (log enrichment); library NNK3; higher = more nucleation; inactive = no reads after selection
parameter: amyloid nucleation score

Previously resolved entries follow.
substance: FLTVIGLYNLSDGPCCK
amyloid nucleation score: 1.79
//
substance: SIVSPIMRLFCFGLRAYKAV
amyloid nucleation score: inactive
//
substance: FVMGMNAVQRSLSSIYTLCV
amyloid nucleation score: inactive
//
substance: RMRCAAVRAARAVPATKGEG
amyloid nucleation score: inactive
//
substance: MEYRHCSFNRSRTRTLYRMN
amyloid nucleation score: inactive

For each of the substances below, state amyloid nucleation score.
1. MPYDFPVVHNIDFFG
2. SWEFPTDKSYMSCREPENPM
3. VVDDIWRPIDL
4. VLTYTFRPSVSCSNKSKGSA
5. HCFLRMWKLLRTYLQVVLET
6. NMTTLVKTMEDNMDSCISGV
7. PEKMFPSPVTATRFANCVL
8. SWSARVKVLLVVGCNVSVFC

**Result**
["inactive", "inactive", "inactive", 0.107, "inactive", 1.12, "inactive", 0.842]

Provide the reported amyloid nucleation score of each entry below, same order.
1. DCCKFFLKDSRSRSFSWSIY
2. APGIFPMSGMISYSLRV
3. LCHSSRGDIH

**Result**
[1.66, "inactive", "inactive"]

# per-item lookup of amyloid nucleation score; items listed below
1. HSFTAMLICSAYASAARYLR
2. DMGLYLFFIYLCGVRDLLST

**Result**
1. inactive
2. inactive

Below are 2 substances. Give each one its amyloid nucleation score.
1. CCSKFHAQN
2. GILRIWNDLSLRFDKIWWG

**Result**
inactive
inactive
